test system: NIH/3T3 fibroblast cells; experiment: MTT assay on non-malignant fibroblasts (selectivity); assay type: cell-based, murine; conditions: Mus musculus, NIH3T3; NIH/3T3, 30 μM, 72 h; read-out: Growth inhibition (%) ± SEM
Record form. Attribute: inhibition at 30 µM. Fill in for each entry.
One number for each entry, in %.

Example cases with answers are listed next.
// query Look up inhibition at 30 µM for this compound: COC(=O)[C@]1(C)CCC[C@@]2(C)[C@@H]3CC[C@@]4(CO)C[C@]3(CC[C@@H]21)C[C@H]4N[C@@H](C)c1ccc2ccccc2c1
// result 96.8

// query Look up inhibition at 30 µM for this compound: COC(=O)[C@]1(C)CCC[C@@]2(C)[C@@H]3CC[C@@]4(CO)C[C@]3(CC[C@@H]21)C[C@H]4NCc1ccc(OC)cc1
// result 96.6

// query Look up inhibition at 30 µM for this compound: COC(=O)[C@]1(C)CCC[C@@]2(C)[C@@H]3CC[C@@]4(Cn5cc(Cc6ccccc6)nn5)C[C@]3(CC[C@@H]21)C[C@H]4O
// result 92.9

// query Look up inhibition at 30 µM for this compound: COC(=O)[C@]1(C)CCC[C@@]2(C)[C@@H]3CC[C@@]4(CO)C[C@]3(CC[C@@H]21)C[C@H]4NCc1cccc2ccccc12
// result 96.5

Batch request: inhibition at 30 µM for each of the following compounds.
1. CC[C@H](NC[C@@]12CC[C@@H]3[C@@](CC[C@H]4[C@@]3(C)CCC[C@@]4(C)C(=O)OC)(C[C@H]1O)C2)c1ccccc1
2. COC(=O)[C@]1(C)CCC[C@@]2(C)[C@@H]3CC[C@@]4(CN[C@@H](C)c5cccc6ccccc56)C[C@]3(CC[C@@H]21)C[C@H]4O

// result
1. 93.7
2. 94

====

system: HeLa cells; test: MTT antiproliferative assay, HeLa; type: cell-based; conditions: Homo sapiens, 30 μM, 72 h, read-out: Growth inhibition (%) ± SEM
Record form. Attribute: inhibition at 30 µM. Fill in for each entry.
Numbers only, in %.

Example cases with answers are listed next.
// query Look up inhibition at 30 µM for this molecule: COC(=O)[C@]1(C)CCC[C@@]2(C)[C@@H]3CC[C@@]4(CO)C[C@]3(CC[C@@H]21)C[C@@H]4N
// result 96.9

// query Look up inhibition at 30 µM for this molecule: COC(=O)[C@]1(C)CCC[C@@]2(C)[C@@H]3CC[C@@]4(CO)C[C@]3(CC[C@@H]21)C[C@H]4N
// result 93.9

// query Look up inhibition at 30 µM for this molecule: COC(=O)[C@]1(C)CCC[C@@]2(C)[C@@H]3CC[C@@]4(CO)C[C@]3(CC[C@@H]21)C[C@H]4N[C@H](C)c1cccc2ccccc12
// result 92.3

// query Look up inhibition at 30 µM for this molecule: CC[C@H](NC[C@@]12CC[C@@H]3[C@@](CC[C@H]4[C@@]3(C)CCC[C@@]4(C)C(=O)OC)(C[C@H]1O)C2)c1ccccc1
// result 32.2

// query Look up inhibition at 30 µM for this molecule: COC(=O)C1(C)CCCC2(C)C3CCC4(CN)CC3(CCC12)CC4O (stereo not shown)
// result 96

Batch request: inhibition at 30 µM for each of the following molecules.
1. COC(=O)[C@]1(C)CCC[C@@]2(C)[C@@H]3CC[C@@]4(Cn5cc(-c6ccccc6)nn5)C[C@]3(CC[C@@H]21)CC4=O
2. COC(=O)[C@]1(C)CCC[C@@]2(C)[C@@H]3CC[C@@]4(Cn5cc(Cc6ccccc6)nn5)C[C@]3(CC[C@@H]21)CC4=O
3. COC(=O)[C@]1(C)CCC[C@@]2(C)[C@@H]3CC[C@@]4(CN[C@H](C)c5ccc6ccccc6c5)C[C@]3(CC[C@@H]21)C[C@H]4O
4. COC(=O)[C@]1(C)CCC[C@@]2(C)[C@@H]3CC[C@@]4(Cn5cc(-c6ccccc6)nn5)C[C@]3(CC[C@@H]21)C[C@H]4O
5. COC(=O)[C@]1(C)CCC[C@@]2(C)[C@@H]3CC[C@@]4(CN=[N+]=[N-])C[C@]3(CC[C@@H]21)CC4=O
6. COC(=O)[C@]1(C)CCC[C@@]2(C)[C@@H]3CC[C@@]4(CO)C[C@]3(CC[C@@H]21)C[C@H]4N[C@@H](C)c1cccc2ccccc12
7. COC(=O)[C@]1(C)CCC[C@@]2(C)[C@@H]3CC[C@@]4(CN[C@@H](C)c5ccc6ccccc6c5)C[C@]3(CC[C@@H]21)C[C@H]4O

// result
1: 23.9; 2: 75.2; 3: 92.2; 4: 88.1; 5: 46.9; 6: 95.1; 7: 94.5

// query Look up inhibition at 30 µM for this molecule: COC(=O)[C@]1(C)CCC[C@@]2(C)[C@@H]3CC[C@@]4(CO)C[C@]3(CC[C@@H]21)C[C@H]4N[C@@H](C)c1ccc2ccccc2c1
// result 95.7

====

system: MDA-MB-231 cells; experiment: MTT antiproliferative assay, MDA-MB-231; type: cell-based; settings: Homo sapiens; MDA-MB-231, 10 μM, 72 h; read-out: Growth inhibition (%) ± SEM
Record form. Attribute: inhibition at 10 µM. Fill in for each entry.
One number for each entry, in %.

Example cases with answers are listed next.
// query Look up inhibition at 10 µM for this compound: COC(=O)[C@]1(C)CCC[C@@]2(C)[C@@H]3CC[C@@]4(CO)C[C@]3(CC[C@@H]21)C[C@H]4NCc1ccc(OC)cc1
// result 78.7

// query Look up inhibition at 10 µM for this compound: COC(=O)[C@]1(C)CCC[C@@]2(C)[C@@H]3CC[C@@]4(CNCc5ccccc5)C[C@]3(CC[C@@H]21)C[C@H]4O
// result 91

// query Look up inhibition at 10 µM for this compound: COC(=O)[C@]1(C)CCC[C@@]2(C)[C@@H]3CC[C@@]4(CN[C@@H](C)c5cccc6ccccc56)C[C@]3(CC[C@@H]21)C[C@H]4O
// result 67.2

// query Look up inhibition at 10 µM for this compound: COC(=O)[C@]1(C)CCC[C@@]2(C)[C@@H]3CC[C@@]4(CO)C[C@]3(CC[C@@H]21)C[C@@H]4N
// result 28

// query Look up inhibition at 10 µM for this compound: COC(=O)[C@]1(C)CCC[C@@]2(C)[C@@H]3CC[C@@]4(CO)C[C@]3(CC[C@@H]21)C[C@H]4N
// result 25.8

Attention now turns to another entry.
// query Look up inhibition at 10 µM for this compound: COC(=O)[C@]1(C)CCC[C@@]2(C)[C@@H]3CC[C@@]4(CNCc5cccc6ccccc56)C[C@]3(CC[C@@H]21)C[C@H]4O
// result 87.6

====

system: human cancer cell lines (HeLa, SiHa, MCF-7, MDA-MB-231, A2780); experiment: MTT antiproliferative assay, panel of malignant cells; assay type: cell-based; settings: 30 μM
Readout name: antiproliferative action at higher concentration (in words)

// query Param readout = antiproliferative action at higher concentration (in words); param system = human cancer cell lines (HeLa, SiHa, MCF-7, MDA-MB-231, A2780); param query = COC(=O)[C@]1(C)CCC[C@@]2(C)[C@@H]3CC[C@@]4(CN=[N+]=[N-])C[C@]3(CC[C@@H]21)CC4=O ; response: value
// result no substantial action

// query Param readout = antiproliferative action at higher concentration (in words); param system = human cancer cell lines (HeLa, SiHa, MCF-7, MDA-MB-231, A2780); param query = COC(=O)[C@]1(C)CCC[C@@]2(C)[C@@H]3CC[C@@]4(CN=[N+]=[N-])C[C@]3(CC[C@@H]21)C[C@H]4O ; response: value
// result no substantial action

====

Record form. Attribute: inhibition at 30 µM. Fill in for each entry.
system: HeLa cells; assay: MTT antiproliferative assay, HeLa; format: cell-based; details: Homo sapiens, 30 μM, 72 h, read-out: Growth inhibition (%) ± SEM
Numbers only, in %.

// query Look up inhibition at 30 µM for this molecule: COC(=O)[C@]1(C)CCC[C@@]2(C)[C@@H]3CC[C@@]4(CO)C[C@]3(CC[C@@H]21)C[C@H]4NCc1cccc2ccccc12 [Compound 15]
// result 94.9

// query Look up inhibition at 30 µM for this molecule: COC(=O)[C@]1(C)CCC[C@@]2(C)[C@@H]3CC[C@@]4(CNCc5cccc6ccccc56)C[C@]3(CC[C@@H]21)C[C@H]4O [Compound 26]
// result 93.6

// query Look up inhibition at 30 µM for this molecule: COC(=O)[C@]1(C)CCC[C@@]2(C)[C@@H]3CC[C@@]4(CN[C@@H](C)c5cccc6ccccc56)C[C@]3(CC[C@@H]21)C[C@H]4O [Compound 27]
// result 96.4

// query Look up inhibition at 30 µM for this molecule: COC(=O)[C@]1(C)CCC[C@@]2(C)[C@@H]3CC[C@@]4(CNCc5ccccc5)C[C@]3(CC[C@@H]21)C[C@H]4O [Compound 22]
// result 90.9

// query Look up inhibition at 30 µM for this molecule: COC(=O)[C@]1(C)CCC[C@@]2(C)[C@@H]3CC[C@@]4(CN[C@H](C)c5cccc6ccccc56)C[C@]3(CC[C@@H]21)C[C@H]4O [Compound 28]
// result 94.7

// query Look up inhibition at 30 µM for this molecule: CC[C@@H](N[C@@H]1C[C@]23CC[C@H]4[C@@](C)(CCC[C@@]4(C)C(=O)OC)[C@@H]2CC[C@@]1(CO)C3)c1ccccc1 [Compound 12]
// result 90.8

Batch request: inhibition at 30 µM for each of the following molecules.
1. COC(=O)[C@]1(C)CCC[C@@]2(C)[C@@H]3CC[C@@]4(CO)C[C@]3(CC[C@@H]21)C[C@H]4NCc1ccc(F)cc1 [Compound 9]
2. COC(=O)[C@]1(C)CCC[C@@]2(C)[C@@H]3CC[C@@]4(Cn5cc(Cc6ccccc6)nn5)C[C@]3(CC[C@@H]21)C[C@H]4O [Compound 36]
3. COC(=O)[C@]1(C)CCC[C@@]2(C)[C@@H]3CC[C@@]4(CNCc5ccc(F)cc5)C[C@]3(CC[C@@H]21)C[C@H]4O [Compound 23]
4. CC[C@H](N[C@@H]1C[C@]23CC[C@H]4[C@@](C)(CCC[C@@]4(C)C(=O)OC)[C@@H]2CC[C@@]1(CO)C3)c1ccccc1 [Compound 11]
5. COC(=O)[C@]1(C)CCC[C@@]2(C)[C@@H]3CC[C@@]4(CO)C[C@]3(CC[C@@H]21)C[C@H]4NCc1ccc(OC)cc1 [Compound 10]
6. COC(=O)[C@]1(C)CCC[C@@]2(C)[C@@H]3CC[C@@]4(CO)C[C@]3(CC[C@@H]21)C[C@H]4NCc1ccccc1 [Compound 8]

// result
[95.3, 89.3, 90.4, 94.5, 97.7, 97.5]
